test system: Pellicularia filamentosa (f. sp. sasiki); assay: whole plant or invertebrate; assay type: in vivo; settings: 120 h; read-out: % Control RSB
measurement.name: pest or weed control at 200 ppm (%)
Answers are plain numbers, in %.

In the examples that follow, each entry is paired with its recorded pest or weed control at 200 ppm.
INSERT INTO results (molecule, target_of_assay, measurement_name, measurement) VALUES
  ('CCCCCCCCNC(=O)/C=C\SC(=O)C1=CC(=O)CC(C)(C)O1', 'Pellicularia filamentosa (f. sp. sasiki)', 'pest or weed control at 200 ppm', 0),
  ('CCCCCCCCNC(=O)/C=C\SC(=O)CCOc1ccccc1', 'Pellicularia filamentosa (f. sp. sasiki)', 'pest or weed control at 200 ppm', 0),
  ('CCCCCCCCNC(=O)/C=C\SC(=O)c1ccsc1', 'Pellicularia filamentosa (f. sp. sasiki)', 'pest or weed control at 200 ppm', 0),
  ('CCCCCCCCNC(=O)/C=C\SC(=O)/C=C/C(=O)OCC', 'Pellicularia filamentosa (f. sp. sasiki)', 'pest or weed control at 200 ppm', 0),
  ('C=CCCC(=O)S/C=C\C(=O)NCCCCCCCC', 'Pellicularia filamentosa (f. sp. sasiki)', 'pest or weed control at 200 ppm', 0);

Record pest or weed control at 200 ppm for all entries; do not skip any.
1. CCCCCCCCNC(=O)/C=C\SC(=O)c1c[nH]c2ccccc12
2. CCCCCCCCNC(=O)/C=C\SC(=O)CC1CCCCC1
3. CCCCCCCCNC(=O)/C=C\SC(=O)c1ccnc2ccccc12

Output line:
0
0
0

Record pest or weed control at 200 ppm for all entries; do not skip any.
1. CCCCCCCCNC(=O)/C=C\SC(=O)CC(C)c1ccccc1 (stereo not shown)
2. CCCCCCCCNC(=O)/C=C\SC(=O)c1cnc2ccccc2c1

Output line:
1: 0; 2: 50
